target: D(2) dopamine receptor (Homo sapiens) (UniProt P14416); experiment: Dopamine D2 receptor (DRD2) small molecule antagonists, cell-based qHTS assay (AID 1963595); details: HEK293-DRD2 cAMP HTRF antagonist mode; series mostly up to 92.4 µM; further: on the % scale 0 is the no-effect control and ±100 the full control effect
Sequence (P14416 whole entry, looked up): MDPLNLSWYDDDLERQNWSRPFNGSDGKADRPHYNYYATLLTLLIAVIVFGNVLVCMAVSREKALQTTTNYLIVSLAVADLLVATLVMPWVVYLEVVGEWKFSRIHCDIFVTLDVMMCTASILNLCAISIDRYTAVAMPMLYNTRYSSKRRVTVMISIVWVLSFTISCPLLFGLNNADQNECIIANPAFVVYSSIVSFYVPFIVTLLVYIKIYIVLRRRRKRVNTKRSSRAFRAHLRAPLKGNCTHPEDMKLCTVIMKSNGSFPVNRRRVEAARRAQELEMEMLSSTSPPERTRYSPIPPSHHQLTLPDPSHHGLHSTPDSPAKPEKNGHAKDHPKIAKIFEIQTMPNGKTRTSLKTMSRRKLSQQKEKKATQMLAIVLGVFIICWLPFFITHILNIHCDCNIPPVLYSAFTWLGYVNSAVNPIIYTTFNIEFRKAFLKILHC
Records with an inconclusive call do not appear. Calls of active or inactive are those of the source. The call rests on the fitted dose curve; in most records, active means well fitted inhibition curve with a large enough effect in the signal ratio in the repeat runs, with a control signal flat; inconclusive means weak or mixed curves, or effect the other way; inactive means flat fitted curve, though single readings scatter; the % refers to the signal ratio.

# COMPOUND, activity change, negative = inhibition
rows = [
    ("O=C(Nc1ccccc1)c1ccccc1O", "inactive"),
    ("COC(=O)C(C)O (stereo not drawn)", "inactive"),
    ("CCCc1ccc(O)c(OC)c1", "inactive"),
    ("O=CN1CCCCC1", "inactive"),
    ("COC(=O)CCc1ccc(OCC(O)CNC(C)C)cc1 (stereo not drawn)", "inactive"),
    ("CCCCCCCCCCCCCCC1CO1 (stereo not drawn)", "inactive"),
    ("CCN(CCC#N)c1ccc(N=Nc2ccc([N+](=O)[O-])cc2)cc1", "inactive"),
    ("CC1(c2ccccc2)OC(C(=O)O)=CC1=O (stereo not drawn)", "inactive"),
]

====

biological target: D(2) dopamine receptor (Homo sapiens); test: Dopamine D2 receptor (DRD2) small molecule antagonists, cell-based qHTS assay (AID 1963595); settings: HEK293-DRD2 cAMP HTRF antagonist mode; series mostly up to 92.4 µM; further: on the % scale 0 is the no-effect control and ±100 the full control effect
Records with an inconclusive call do not appear. Activity calls are given as the source filed them. Calls come from the whole dose curve; as a rule, active = well fitted inhibition curve with a large enough effect in the signal ratio in the repeat runs, with a control signal flat; inconclusive = weak or mixed curves, or effect the other way; inactive = flat fitted curve, though single readings scatter; the % refers to the signal ratio.

# COMPOUND, TARGET ENTITY, activity change, negative = inhibition
records = [
    ("CN(C)CCOCCN(C)CCO", "D(2) dopamine receptor (Homo sapiens)", "inactive"),
    ("O=C1c2ccccc2C(=O)C1c1ccc2ccccc2n1", "D(2) dopamine receptor (Homo sapiens)", "inactive"),
    ("CCCCCCCCCCOc1cc2c(=O)c(C(=O)OCC)c[nH]c2cc1OCC", "D(2) dopamine receptor (Homo sapiens)", "8.14% [at 8.38 µM] (inactive)"),
    ("CC(O)c1ccccc1 (stereo not drawn)", "D(2) dopamine receptor (Homo sapiens)", "inactive"),
    ("Nc1nc(-c2ccccc2)c(Br)c(=O)[nH]1", "D(2) dopamine receptor (Homo sapiens)", "inactive"),
    ("NS(=O)(=O)c1cc(C(=O)O)cc(N2CCCC2)c1Oc1ccccc1", "D(2) dopamine receptor (Homo sapiens)", "inactive"),
    ("Nc1cc(C(=O)O)ccc1Cl", "D(2) dopamine receptor (Homo sapiens)", "inactive"),
    ("COc1ccc(C(=O)N2CCN(CC(=O)N3CCOCC3)CC2)cc1", "D(2) dopamine receptor (Homo sapiens)", "inactive"),
    ("COc1cc(C(=O)NC2CCCNC2)cc(OC)c1OC (stereo not drawn)", "D(2) dopamine receptor (Homo sapiens)", "inactive"),
    ("COC(=O)CCCCCCCCC(=O)OC", "D(2) dopamine receptor (Homo sapiens)", "inactive"),
    ("CCOC(=O)Cc1cccc2ccccc12", "D(2) dopamine receptor (Homo sapiens)", "inactive"),
    ("CN(Cc1cc(Br)cc(Br)c1N)C1CCCCC1", "D(2) dopamine receptor (Homo sapiens)", "inactive"),
    ("CCOc1ccccc1O", "D(2) dopamine receptor (Homo sapiens)", "inactive"),
    ("C=CC(=O)OCC[N+](C)(C)C", "D(2) dopamine receptor (Homo sapiens)", "inactive"),
    ("C/C=C/C(=O)CC", "D(2) dopamine receptor (Homo sapiens)", "0.284% [at 18.9 µM] (inactive)"),
    ("CC1=CC(=O)CC(C)(C)C1(O)/C=C/C(C)=C\\C(=O)O (stereo not drawn)", "D(2) dopamine receptor (Homo sapiens)", "inactive"),
    ("C=CCn1c(=O)n(CC=C)c(=O)n(CC=C)c1=O", "D(2) dopamine receptor (Homo sapiens)", "inactive"),
    ("CCCCCN(CCCCC)C(=O)C(CCC(=O)O)NC(=O)c1ccc(Cl)c(Cl)c1 (stereo not drawn)", "D(2) dopamine receptor (Homo sapiens)", "inactive"),
    ("CCCCCCCCCCCCCCCCCC(=O)OCCCCCCCCCCCCCC(C)C", "D(2) dopamine receptor (Homo sapiens)", "inactive"),
    ("O=c1[nH]cnc2nc[nH]c12", "D(2) dopamine receptor (Homo sapiens)", "inactive"),
    ("Nc1ccc(C(=O)O)c(O)c1", "D(2) dopamine receptor (Homo sapiens)", "inactive"),
    ("N[C@H](C(=O)O)[C@@H](O)c1ccc(O)c(O)c1", "D(2) dopamine receptor (Homo sapiens)", "inactive"),
    ("Cc1c(F)cc2c(=O)c(C(=O)O)cn3c2c1CCC3C (stereo not drawn)", "D(2) dopamine receptor (Homo sapiens)", "inactive"),
    ("O=C1c2cccc(O)c2C(=O)c2c(O)cc(CO)cc21", "D(2) dopamine receptor (Homo sapiens)", "inactive"),
    ("C=CC(C)(C)O", "D(2) dopamine receptor (Homo sapiens)", "inactive"),
    ("COc1ccc(/C=C/S(=O)(=O)NC(=O)c2ccc(C)cc2Cl)cc1", "D(2) dopamine receptor (Homo sapiens)", "inactive"),
    ("CC(C)C[P+](C)(CC(C)C)CC(C)C", "D(2) dopamine receptor (Homo sapiens)", "inactive"),
    ("CCO", "D(2) dopamine receptor (Homo sapiens)", "inactive"),
]

====

test: G protein-coupled receptor (GPCR) small molecule agonists, calcium flux assay: HEK293 wild type cell line counter screen (AID 1920065); conditions: HEK293 WT calcium flux, fluorescence, agonist mode; series mostly up to 57.6 µM; further: on the % scale 0 is the no-effect control and ±100 the full control effect
Active and inactive are the calls of the source. The call rests on the fitted dose curve.
QUANTITY MEASURED: activation

# COMPOUND, QUANTITY MEASURED, ASSAY VALUE
data = [
    ("Cc1ccc(-n2nc(C(C)(C)C)cc2NC(=O)Nc2ccc(OCCN3CCOCC3)c3ccccc23)cc1", "activation", "inactive"),
    ("FC(F)(F)C(F)(F)C(F)(F)C(F)(F)CCI", "activation", "inactive"),
    ("NS(=O)(=O)c1cc2c(cc1C(F)(F)F)NCNS2(=O)=O", "activation", "inactive"),
    ("CC[C@@H](N)CO", "activation", "inactive"),
    ("CC(C)(O)C(=O)c1ccccc1", "activation", "inactive"),
    ("O=Cc1ccccc1[N+](=O)[O-]", "activation", "inactive"),
    ("CC[N+](CC)(CC)Cc1ccccc1", "activation", "inactive"),
    ("CCN(CC)CCc1nc(-c2ccccc2)no1", "activation", "inactive"),
    ("C#CC(C)N(C)C(=O)Nc1ccc(Cl)cc1 (stereo not drawn)", "activation", "inactive"),
    ("O=C(NCCc1c[nH]c2ccccc12)c1cccnc1", "activation", "inactive"),
    ("c1ccc(COCc2ccccc2)cc1", "activation", "inactive"),
    ("C[C@H](O)C(=O)Nc1c(I)c(C(=O)NC(CO)CO)c(I)c(C(=O)NC(CO)CO)c1I", "activation", "inactive"),
    ("CN(C)CCc1c[nH]c2ccc(CS(=O)(=O)N3CCCC3)cc12", "activation", "inactive"),
]

====

biological target: KiSS-1 receptor (Homo sapiens); assay: Human kisspeptin (KISS1R) small molecule agonists, calcium flux assay in KISS1R-HEK293 cells (AID 1920064); settings: KISS1R-HEK293, calcium flux fluorescence, agonist; series mostly up to 76.8 µM; further: on the % scale 0 is the no-effect control and ±100 the full control effect
Calls of active or inactive are those of the source. Calls follow the shape of the dose curve; as a rule, active = well fitted activation curve with a large enough effect in the repeat runs; inconclusive = weak or mixed curves; inactive = flat fitted curve, though single readings scatter.

# MOLECULE, activation
measured = [
    ("CCOC(=O)OC(C)OC1=C(C(=O)Nc2ccccn2)N(C)S(=O)(=O)c2ccccc21 (centres undefined)", "inactive"),
    ("C[n+]1ccccc1/C=N/O", "inactive"),
    ("Clc1cc(Cl)c(-c2c(Cl)c(Cl)cc(Cl)c2Cl)cc1Cl", "inactive"),
    ("CC/C=C\\CCOC(=O)c1ccccc1O", "inactive"),
    ("CCOC(=O)C1=NOC(c2ccccc2)(c2ccccc2)C1", "inactive"),
    ("CN1CCN(CC(=O)N2c3ccccc3C(=O)Nc3cccnc32)CC1", "7.1% [at 6.97 µM] (inactive)"),
    ("COC(=O)CS", "inactive"),
    ("COc1cc2c(cc1OC)C(=O)C(CC1CCN(Cc3ccccc3)CC1)C2 (centres undefined)", "inactive"),
    ("Cc1cc(NS(=O)(=O)c2ccc(N)cc2)nc(C)n1", "inactive"),
    ("CCCCCCCCCCCCCCCCC(=O)O", "inactive"),
    ("CCCCC/C=C/CC1CC(=O)OC1=O (centres undefined)", "inactive"),
    ("CN1C(=O)OC(C)(C)C1=O", "inactive"),
    ("Nc1ccc(S(=O)(=O)Nc2ccccc2)cc1", "inactive"),
    ("NCc1ccco1", "inactive"),
    ("N=c1ccn2c(n1)O[C@H]1[C@H](O)[C@@H](CO)O[C@H]12", "inactive"),
    ("CCCCC/C=C/CC(=O)OC", "inactive"),
    ("CN1CCN(N)CC1", "inactive"),
    ("CCCCCOC(=O)CCC", "inactive"),
    ("S=c1[nH][nH]c(=S)s1", "inactive"),
    ("CCNC(=O)C1CC(C)CCC1C(C)C (centres undefined)", "inactive"),
    ("Clc1cc(Cl)c(Cl)nc1Cl", "inactive"),
    ("Cn1cccc1", "inactive"),
    ("CCOC(=O)[C@H](O)[C@@H](O)C(=O)OCC", "inactive"),
    ("CCCCNS(=O)(=O)c1ccc(C)cc1", "inactive"),
    ("O=C(O)c1c(Cl)cccc1Cl", "inactive"),
    ("CCCCCCC1CCCC(=O)O1 (centres undefined)", "inactive"),
    ("CC(=O)CCCCn1c(=O)c2c(ncn2C)n(C)c1=O", "inactive"),
    ("CCN1CCN(c2cc3c(cc2F)c(=O)c(C(=O)O)cn3C2CC2)CC1", "inactive"),
    ("CN1CCN(C2=Nc3ccccc3Oc3ccc(Cl)cc32)CC1", "inactive"),
]
